Let's look at some molecules and their measured GI50.
Test system: SK-MEL-5
Test: NCI tumour cell line growth inhibition, 48 h
The source made the active and inactive calls. Rule as the data show it: active = GI50 up to about 1.1 µM and inactive = higher.

These recorded examples may help you get a feel for the data.
CC(O)(CNS(=O)(=O)c1ccccc1)c1ccccc1 (stereo unspecified) | > 100 µM (inactive)
NC1=NC(Cn2nc(-c3ccccc3)c3ccccc3c2=O)=NNC(=O)N1 | > 100 µM (inactive)
CC(C)=CCC/C(=C/CC/C(C)=C/CCc1ccoc1)C(=O)O | > 100 µM (inactive)
O=C(CCc1n[nH]c(=S)o1)Nc1ccccc1C(F)(F)F | > 100 µM (inactive)
O=C1NC(=S)N/C1=C/c1c(-c2ccccc2)[nH]c2ccccc12 | 13 µM (inactive)

Exercise: Quick check: GI50 of CN(C)CCCNC(=O)N/N=C/c1cccc([N+](=O)[O-])c1 ?
Key: > 100 µM (inactive)

Exercise: Quick check: GI50 of CC(C)=CCNc1ncnc2c1ncn2CCC(=O)OC(C)(C)C ?
Key: 21.4 µM (inactive)

Exercise: Quick check: GI50 of CC1(C)Oc2ccc3c(=O)cc(-c4ccccc4)oc3c2C1C(=O)O (stereo unspecified) ?
Key: > 100 µM (inactive)

Exercise: Quick check: GI50 of CCOC(=O)Cn1c(=O)n(C)c(=O)c2c1ncn2Cc1ccccc1 ?
Key: > 100 µM (inactive)

Exercise: Quick check: GI50 of CC(Cc1ccc(O)c(O)c1)C(C)Cc1ccc(O)c(O)c1 (stereo unspecified) [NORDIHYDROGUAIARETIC ACID] ?
Key: 16.8 µM (inactive)

Exercise: Quick check: GI50 of CC(=O)/C=C1\Nc2sc(C)c(C)c2C(=O)S1 ?
Key: 41 µM (inactive)
